study_target: Type-1 angiotensin II receptor (Homo sapiens)
Sequence (P30556 whole entry): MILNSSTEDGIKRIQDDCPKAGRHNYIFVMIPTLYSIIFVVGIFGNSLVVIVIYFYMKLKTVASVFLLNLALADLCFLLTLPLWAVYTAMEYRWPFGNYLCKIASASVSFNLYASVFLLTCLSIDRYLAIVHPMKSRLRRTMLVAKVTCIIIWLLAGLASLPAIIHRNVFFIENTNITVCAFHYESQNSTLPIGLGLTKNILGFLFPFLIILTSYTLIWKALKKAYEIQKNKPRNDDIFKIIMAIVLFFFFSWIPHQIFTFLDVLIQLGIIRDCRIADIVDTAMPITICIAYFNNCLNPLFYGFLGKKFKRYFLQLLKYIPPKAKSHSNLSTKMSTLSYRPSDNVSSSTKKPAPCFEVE
experiment: Binding affinity to AT1R (unknown origin) expressed in Escherichia coli strain BL 21 (DE3) incubated for 20 mins by SDS PAGE analysis
recorded_endpoint: Kd (nM)
Give bare numbers, in nM.

Query block: Form entry - test system: Type-1 angiotensin II receptor (Homo sapiens); read-out: Kd; compound: `CCOC(=O)[C@@H](Cc1ccc(F)cc1)NC(=O)[C@@H](CC1CCCCC1)NC(=O)[C@@H](C)NC(=O)/C=C/c1ccc(O)c(O)c1`
Result block: 0.49
